Data credit: patent US12643887B2

molecular target: human CK2a2 (CSNK2a2) (Homo sapiens, UniProt P19784); construct: Recombinant human CK2a2 (CSNK2a2) (full length); GST (N); purchased SignalChem C71-10G; host or cells: Sf9 insect cells; test: CK2a2 (CSNK2a2) enzyme assay (ADP-Glo); type: biochemical; conditions: ADP-Glo, ATP 15 μM; read-out: CK2 alpha 2 IC50
Sequence (P19784 whole entry): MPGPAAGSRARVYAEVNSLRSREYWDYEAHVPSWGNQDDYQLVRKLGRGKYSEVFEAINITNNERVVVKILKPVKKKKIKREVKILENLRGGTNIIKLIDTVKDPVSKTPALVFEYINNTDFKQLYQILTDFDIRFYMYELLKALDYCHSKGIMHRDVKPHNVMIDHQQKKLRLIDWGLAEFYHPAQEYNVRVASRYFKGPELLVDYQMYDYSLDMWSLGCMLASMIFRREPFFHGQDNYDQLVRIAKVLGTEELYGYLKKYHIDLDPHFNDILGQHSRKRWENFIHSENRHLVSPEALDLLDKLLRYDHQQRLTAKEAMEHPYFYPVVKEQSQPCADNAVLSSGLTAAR
Measurement Name: IC50

- O=C1NC(Nc2ccc3ncsc3c2)=N/C1=C\c1ccc2ncsc2c1 [Example 48]: < 0.1 µM
- COc1ccccc1N(C)C1=N/C(=C\c2ccc3c(c2)OCO3)C(=O)N1 [Example 21]: 1 to 10 µM
- CN(C1=N/C(=C\c2ccc3ncsc3c2)C(=O)N1)c1ccc2ncsc2c1 [Example 83]: 0.1 to 1 µM
- NC1=N/C(=C\c2ccc3ncsc3c2)C(=O)N1 [Example 103]: 0.1 to 1 µM

====

target: human HIPK1 (Homo sapiens); construct: Recombinant human HIPK1 (156-555); GST (N); purchased SignalChem H03-11G; host or cells: Sf9 insect cells; test: HIPK1 enzyme assay (ADP-Glo); type: biochemical; conditions: ADP-Glo, ATP 5 μM; read-out: HIPK1 IC50
Sequence (Q86Z02 156-555): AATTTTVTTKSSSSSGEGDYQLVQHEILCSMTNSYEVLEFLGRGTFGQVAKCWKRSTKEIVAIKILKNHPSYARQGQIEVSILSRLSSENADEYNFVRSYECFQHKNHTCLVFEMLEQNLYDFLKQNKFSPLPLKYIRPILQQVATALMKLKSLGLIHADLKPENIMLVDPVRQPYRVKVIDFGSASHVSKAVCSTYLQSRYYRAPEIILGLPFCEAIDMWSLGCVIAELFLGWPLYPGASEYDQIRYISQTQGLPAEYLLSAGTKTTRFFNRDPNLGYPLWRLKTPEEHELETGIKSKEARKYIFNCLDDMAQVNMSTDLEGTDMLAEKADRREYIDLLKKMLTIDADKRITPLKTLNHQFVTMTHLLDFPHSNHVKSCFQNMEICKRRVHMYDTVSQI
Collected IC50 values appear next to each entry.
Measurement Name: IC50

* CN1C(=O)/C(=C/c2ccc3c(c2)OCO3)N=C1N(C)c1ccccc1 | > 10 µM
* O=C1NC(Nc2ccc3ncsc3c2)=NC1Cc1ccc2ncsc2c1 (stereo not shown) | 0.1 to 1 µM
* Cn1cnc2cc(NC3=N/C(=C\c4ccc5ncsc5c4)C(=O)N3)ccc21 | 0.1 to 1 µM
* CC(C)NC1=N/C(=C\c2ccc3ncsc3c2)C(=O)N1C | 1 to 10 µM
* COc1ccc(N(C)C2=N/C(=C\c3ccc4c(c3)OCO4)C(=O)N2)cc1 | > 10 µM
* O=C1NC(N(CC2CC2)c2ccc3ncsc3c2)=N/C1=C\c1ccc2ncsc2c1 | > 10 µM
* Cn1cnc2ccc(NC3=N/C(=C\c4ccc5ncsc5c4)C(=O)N3)cc21 | 0.1 to 1 µM
* O=C1NC(Nc2ccc3ncsc3c2)=N/C1=C\c1ccc2scnc2c1 | < 0.1 µM
* O=C1NC(Nc2ccc3ncsc3c2)=N/C1=C\c1ccc2[nH]ccc2c1 | > 10 µM
* O=C1NC(NCCN2CCOCC2)=N/C1=C\c1ccc2ncsc2c1 | 1 to 10 µM
* CN(CC1CC1)C1=N/C(=C\c2ccc3c(c2)OCO3)C(=O)N1 | > 10 µM
* O=C1NC(N(Cc2ccccc2)c2ccc3ncsc3c2)=N/C1=C\c1ccc2ncsc2c1 | > 10 µM
* O=C1NC(NCC2CC2)=N/C1=C\c1ccc2ncsc2c1 | 1 to 10 µM
* O=C1NC(Nc2ccc3ncsc3c2)=N/C1=C\c1ccc2cccnc2c1 | > 10 µM
* Cn1ncc2cc(/C=C3\N=C(Nc4ccccc4)NC3=O)ccc21 | > 10 µM
* CN(CC1CC1)C1=N/C(=C\c2ccc3c(c2)OCCO3)C(=O)N1 | > 10 µM
* Nc1ccc(NC2=N/C(=C\c3ccc4ncsc4c3)C(=O)N2)cc1 | 0.1 to 1 µM
* O=C1NC(Nc2ccccc2)=N/C1=C\c1ccc2cc[nH]c2c1 | > 10 µM
* O=C(O)CCN(C1=N/C(=C\c2ccc3c(c2)OCO3)C(=O)N1)c1ccccc1 | 1 to 10 µM
* O=C1NC(Nc2ccc3ncsc3c2)=N/C1=C\c1ccc2cn[nH]c2c1 | > 10 µM
* CN(C1=N/C(=C\c2ccc3c(c2)OCO3)C(=O)N1)c1cccnc1 | > 10 µM
* O=C1NC(Nc2ccc3[nH]ccc3c2)=N/C1=C\c1ccc2ncsc2c1 | 0.1 to 1 µM
* Cn1cnc2ccc(/C=C3\N=C(Nc4ccccc4)NC3=O)cc21 | 0.1 to 1 µM
* O=C1NC(Nc2ccc3sccc3c2)=N/C1=C\c1ccc2ncsc2c1 | > 10 µM
* CN(C1=N/C(=C\c2ccc3ncsc3c2)C(=O)N1)c1ccc2c(c1)ncn2C | 1 to 10 µM
* COCCN(C1=N/C(=C\c2ccc3ncsc3c2)C(=O)N1)c1ccc2ncsc2c1 | 1 to 10 µM
* O=C1NC(Nc2ccccc2)=N/C1=C\c1ccc2sccc2c1 | > 10 µM
* CC(C)NC1=N/C(=C\c2ccc3scnc3c2)C(=O)N1 | > 10 µM
* O=C1/C(=C/c2ccc3ncsc3c2)N=C(N(Cc2ccccc2)c2ccccc2)N1Cc1ccccc1 | > 10 µM
* O=C1NC(Nc2ccccc2)=N/C1=C\c1ccc2[nH]cnc2c1 | 0.1 to 1 µM
* CN(Cc1ccccc1)C1=N/C(=C\c2ccc3c(c2)OCO3)C(=O)N1 | > 10 µM
* O=C1NC(=S)N/C1=C\c1ccc2sccc2c1 | > 10 µM
* O=C1NC(Nc2ccc3nc(Nc4ccccc4)sc3c2)=N/C1=C\c1ccc2ncsc2c1 | > 10 µM
* CN(C1=N/C(=C\c2ccc3ncsc3c2)C(=O)N1)c1ccc2ncsc2c1 | > 10 µM
* O=C1NC(Nc2ccccc2)=N/C1=C\c1ccc(=O)[nH]c1 | > 10 µM
* CN(C1=N/C(=C\c2ccc3c(c2)OCO3)C(=O)N1)c1ccc(N)cc1 | > 10 µM
* Cn1ncc2ccc(/C=C3\N=C(Nc4ccccc4)NC3=O)cc21 | > 10 µM
